We begin with a simple list: items and their reported growth inhibition.
assay: NCI Yeast Anticancer Drug Screen. Data for the sgs1 mgt1 strain (AID 161);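 note: 0% = growth of cultures given vehicle only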; conditions: S. cerevisiae sgs1 mgt1 strain, at 50.0 µM, hits give high values
The panel holds about 79,000 compounds, 15% with a hit somewhere; the sample as a whole holds those more often.
observable: growth inhibition (%)

> print(dat)
                                    compound  result.value
 1        CCOc1c(N=Nc2ccccc2C)c(C)nn1C(=S)SC         -15.4
 2  COCCn1nc(-c2ccc(Cl)cc2)c(-c2ccc(Cl)cc2)c(C(C)=O)c1=O           0.9
 3  C=C1SC(=Nc2c(C)cccc2Cl)N(C(=O)c2sc3ccccc3c2Cl)C12CCCCC2           2.3
 4         NC1=NN(c2c(Cl)cc(Cl)cc2Cl)C(=O)C1          17.6
 5  O=C1c2ccccc2CCC12OC2c1ccccn1 (stereo not given)            55
 6  C[N+]1(C)CC2C3C=C(I)C(C3)C2C1 (stereo not given)          15.2
 7                             O=C1CSC(=O)N1          -0.2
 8            NC(=S)N/N=C/c1ccccc1S(=O)(=O)O         -9.75
 9  O=c1[nH]c2ccccc2c(O)c1/C=N/C(=S)NC1CCCCC1         -7.55
10                                     C#CCI          6.95
11  CC1(C)CC(OP(=O)(c2ccccc2)c2ccccc2)CC(C)(C)N1O          -6.3
12               [O-][N+](CCO)(CCO)Cc1ccccc1          19.8
13                    CC(=C(C#N)C#N)c1ccccc1          13.1
14            COc1ccc(-c2onc3ccc(Cl)cc23)cc1          17.4
15  CN(C)C1CS(=O)(=O)OC2=C1COCC2 (stereo not given)          -0.7

These data points were gathered from PubChem BioAssay (NCI).
